System: OVCAR-5 ovarian
Protocol summary: NCI-60 one-dose screen, 48 h (100 = growth as untreated, 0 = no growth, -100 = all killed)
Measurement conditions: 10 µM
About 83,000 compounds went through this panel and 20% of them were active in at least one assay; those are over-represented in the sample as a whole.
Label t when growth is at or above 30%; anything below gets f.

Examples from the recorded data:
1. CC(=O)O[C@@H]1[C@@H]2O[C@H]2[C@@](C)(O)C(=O)[C@@H](C)C/C=C/[C@H]2[C@@H]3O[C@]3(C)[C@@H](C)C3[C@H](Cc4ccccc4)NC(=O)[C@@]312 (stereo partly specified)	t
2. CC1=C(CCC=NNC(N)=O)C2=C(C)C3(CC3)[C@@](C)(O)C(=O)C2=C1	f
3. CC1=C2C(=C[C@@](C)(COC(=O)c3ccc(S(=O)(=O)F)cc3)[C@@H]2OC(=O)c2ccc(S(=O)(=O)F)cc2)C(=O)[C@](C)(O)C12CC2	f
4. CC1=C2C(=C[C@@](C)(COC(=O)c3ccc(S(=O)(=O)F)cc3)[C@@H]2O)C(=O)[C@](C)(O)C12CC2	f

Now consider a different molecule.
Req: State whether the measured growth reaches 30%, counting equality as reaching it, for O=C(CCCc1ccc(N(CCCl)CCCl)cc1)OCc1ccccc1
Resp: t

// data source = PubChem BioAssay (NCI)
